The measurements presented in this section are drawn from patent US10822379.

# measurement.target: RBD of the S protein of SARS-CoV-2 (SARS-CoV-2, UniProt P0DTC2 330-532)
# experiment.notes: ELISA on SARS-CoV-2 RBD
# reported EC50; entries follow
observed.property: EC50 (nM)

{"columns": ["binder", "number"],
 "data": [
  ["Clone #1 (ab1) (Fab, V domains shown, also called #1 (Fab)) VH: EVQLVESGGGLVQPGGSLRLSCAASGFTVSSNYMSWVRQAPGKGLEWVSVIYSGGSTYYADSVKGRFTISRHNSKNTLYLQMNSLRAEDTAVYYCARGYGDYYFDYWGQGTLVTVSS VL: DVVMTQSPATLSLSPGEKATLSCRASQSVSSYLAWYQQKPGQPPKLLIYWASTRESGVPDRFSGSGSGTDFTLTISSLQAEDVAVYYCQQYGSSPLTFGGGTKVEIKR", 20],
  ["Clone #8 (ab8) (other, also called #8 (VH domain)) VH: EVQLVESGGGLVQPGGSLRLSCAASGFTFDDYAMSWVRQAPGKGLEWIGRMYNNGRTSYNPSLKSLVTISRDNSKNTLYLQMNSLRAEDTATYYCARDNLGYRPSENLYGMDVWGQGTTVTVSS", 25],
  ["Clone #9 (ab9) (other, also called #9 (VH domain)) VH: EVQLVESGGGLVQPGGSLRLSCKGSGFTLSDYYIGWVRQAPGKGLEWIGSMYHSGRTYINPSLKSRVTISRDNSKNTLYLQMNSLRAEDTAVYYCARGGITGTTPIDYWGQGTLVTVSS", 60]
]}
